molecular target: AKT-PIP3 binding (Homo sapiens, UniProt P31749)
Sequence (P31749 whole entry): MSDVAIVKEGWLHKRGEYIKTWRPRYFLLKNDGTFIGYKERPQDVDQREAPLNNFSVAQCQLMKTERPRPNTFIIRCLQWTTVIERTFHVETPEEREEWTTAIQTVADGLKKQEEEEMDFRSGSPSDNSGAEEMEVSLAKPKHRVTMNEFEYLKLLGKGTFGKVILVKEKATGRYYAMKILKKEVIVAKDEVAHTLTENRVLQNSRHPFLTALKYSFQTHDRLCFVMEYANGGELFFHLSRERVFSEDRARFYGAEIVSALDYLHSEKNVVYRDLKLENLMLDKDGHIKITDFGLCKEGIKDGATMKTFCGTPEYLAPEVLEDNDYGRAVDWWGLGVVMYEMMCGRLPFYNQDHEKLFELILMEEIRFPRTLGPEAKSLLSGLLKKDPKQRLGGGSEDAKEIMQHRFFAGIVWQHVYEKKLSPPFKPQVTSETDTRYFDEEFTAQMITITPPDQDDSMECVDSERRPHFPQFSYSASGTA
measure-name: pIC50
Formally, pIC50 is defined as -log10 of the concentration c, with c in mol/L.

**Q:** Give the measured pIC50 of CCCCCCCCCCCCCCCCCCOP(=O)([O-])OC1CC[N+](C)(C)CC1 .
**A:** 5.32
